I'd appreciate it if you could supply composite z-score values for the items below.
Test system: wheat germ agglutinin (Triticum aestivum), Alexa647-labelled
Assay: Alexa647-WGA lectin binding to printed small molecules – biochemical, small-molecule microarray, 635/667 nm fluorescence, artefact control for SMM control-protein annotation, profiling panel (AID 1140);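 also: score merges 667 nm feature emission with signal to noise over triplicate slides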
Conditions: WGA-A647 binding, 635 nm fluorescence, higher = more signal
Reply with the value as a number alone.

Tell me its composite z-score on wheat germ agglutinin (Triticum aestivum), Alexa647-labelled: C=CCN1Cc2ccccc2[C@@H]2OC(c3ccc(OCCCO)cc3)=N[C@]2(CCS(=O)(=O)c2ccccc2)C1=O
0.393

Give wheat germ agglutinin (Triticum aestivum), Alexa647-labelled composite z-score for the following molecule: C=C(CCCC)/C(=C/C[C@H](OC(C)=O)c1ccccc1OCCO)c1cnc2ccccc2c1
0.664

Write composite z-score of CCOC(=O)C1=CCC(c2ccc(F)cc2)N(S(=O)(=O)c2ccc(C)cc2)C1 (stereo not drawn) ; system used: wheat germ agglutinin (Triticum aestivum), Alexa647-labelled
0.764

Lab note: wheat germ agglutinin (Triticum aestivum), Alexa647-labelled assay, enter composite z-score for NC(=O)N1C(=O)C2C(C1=O)C1C=C(CCCO)C2C(C2CC2)N1Cc1cc2c(cc1Br)OCO2 (stereo not drawn) here
0.847

Write down the reported composite z-score (system: wheat germ agglutinin (Triticum aestivum), Alexa647-labelled) of [N-]=[N+]=Nc1ccccc1C[C@]1(C(=O)NCc2ccccc2)N=C(c2ccc(OCCCO)cc2)O[C@H]1c1ccccc1N=[N+]=[N-]
0.824

Determine reported composite z-score for COC(=O)[C@@]1(Cc2ccccc2)[C@H]2c3cc(C(=O)N4CCCC4)n(Cc4c(CO)[nH]cc(C)c4=O)c3C[C@H]2CN1C(=O)c1ccccc1 ; test system: wheat germ agglutinin (Triticum aestivum), Alexa647-labelled.
1.05

# lookup: wheat germ agglutinin (Triticum aestivum), Alexa647-labelled composite z-score, key = CC(C)[Si](C#CCCCC#N)(Oc1ccccc1Br)C(C)C
0.327

// output composite z-score; input CCCC=C(CCC)[C@@H](NC(=O)OCC(C)C)c1ccccc1 ; system wheat germ agglutinin (Triticum aestivum), Alexa647-labelled
0.126

====

Assay: probe aNOTCH3 binding on compound microarray – biochemical, small-molecule microarray, 635/667 nm fluorescence, primary screen (AID 1120);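 also: probe is a biotin-tagged antibody raised against NOTCH3 rather than NOTCH3 protein; score merges spot fluorescence near 667 nm with spot signal to noise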
Conditions: higher = more signal
Assign composite z-score to each entry below.
Number only, no unit.

Identify composite z-score associated with the molecule O=C1C2C=CC(C(O)c3c(F)cccc3Cl)N(Nc3ccccc3F)C2C(=O)N1c1ccccc1 (stereo unspecified)
0.185

Please list composite z-score recorded for the molecule COC(=O)C(CC#Cc1ccc2c(c1)[C@]1(C(=O)N2)[C@H](c2ccccc2OCCO)N2[C@H](c3ccccc3)[C@H](c3ccccc3)OC(=O)[C@H]2[C@@H]1C(N)=O)C(=O)OC
0.631

Give the reported composite z-score for this molecule. O=C1O[C@@H](c2ccccc2)[C@@H](c2ccccc2)N2[C@@H](c3ccc(OCCO)cc3)[C@]3(C(=O)Nc4ccc(C#CCCO)cc43)[C@@H](C(=O)NC[C@H](O)c3ccccc3)[C@H]12
0.138

Supply measured composite z-score of C=CCOC(=O)[C@H]1[C@@H]2C(=O)O[C@@H](c3ccccc3)[C@@H](c3ccccc3)N2[C@@H](c2ccc(OCCOC(=O)[C@@H]3C[C@@H]4C(=O)N5CCC[C@H]5C(=O)N4[C@@H]3c3cccc(OCCO)c3)cc2)[C@]12C(=O)Nc1ccc(I)cc12 in your reply.
1.12

Please report composite z-score for the following molecule: CS(=O)(=O)CCOC(=O)C1=CC(CCCO)=CC(c2ccc(CN3CCCC3)cc2)N(Cc2cccc(OC(F)(F)F)c2)C=C1C(=O)OCCS(C)(=O)=O (stereo unspecified)
0.111

State, in one line, measured composite z-score of C[N+](C)(C)CCCCCCNC(=O)[C@H]1C[C@H]2C(=O)N[C@@H](Cc3ccccc3)C(=O)N2[C@H]1c1cccc(OCCO)c1
-0.1
